- EXPERIMENT NOTES: NCI Yeast Anticancer Drug Screen. Data for the rad52 strain (AID 147);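 further: 0% = growth of vehicle-treated control cultures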
- STATED CONDITIONS: S. cerevisiae rad52 mutant growth inhibition; at 3.7 µM; active compounds read high
Compounds without any hit were thinned out: in the full panel of roughly 79,000, 15% have a hit.
ENDPOINT LABEL: growth inhibition (%)
Give the value in % but do not write % after it.

Example entries and their recorded answers appear below.
[[record]]
smi = "COc1cc(CNc2ccc(C(C)C)cc2)cc(OC)c1OC"
endpoint_label = "growth inhibition"
readout_unit = "%"
reported_measurement = 3

[[record]]
smi = "ClCCn1c(CCl)nc2ccc(Cl)cc21"
endpoint_label = "growth inhibition"
readout_unit = "%"
reported_measurement = -41

[[record]]
smi = "Nc1nc(N)c2cc(Sc3ccc4ccccc4c3)ccc2n1"
endpoint_label = "growth inhibition"
readout_unit = "%"
reported_measurement = 69


Please list growth inhibition recorded for the compound COc1cc(N(C)C)ccc1/C=C\c1ccnc2ccccc12 -7

* * *

- EXPERIMENT NOTES: NCI Yeast Anticancer Drug Screen. Data for the rad18 strain (AID 177)
- STATED CONDITIONS: S. cerevisiae rad18 mutant growth inhibition; at 100.0 µM; active compounds read high
About 79,000 compounds went through this panel and 15% of them were active in at least one assay; those are over-represented in the sample as a whole.
Overview of recorded growth inhibition for various compounds
Give the value in % but do not write % after it.

Example entries and their recorded answers appear below.
[[record]]
compound = "O=C(O)c1ccccc1.[Ag]"
reported_measurement = 99

[[record]]
compound = "CCN(CC)CC(O)c1cc(-c2ccc(Cl)cc2)nc2c(-c3ccccc3)cccc12 (centres undefined)"
reported_measurement = 95

[[record]]
compound = "CC(=O)C1(O)Cc2c(O)c3c(c(O)c2C(OC2CC(N)C(O)C(C)O2)C1)C(=O)c1ccccc1C3=O (centres undefined)"
reported_measurement = 98


Please list growth inhibition recorded for the compound COc1cc(/C=C/c2sc3ccccc3[n+]2C)ccc1N(C)C 96

Please list growth inhibition recorded for the compound CCOC(=O)Nc1ccc2c(c1)Cc1ccccc1-2 -10

Please list growth inhibition recorded for the compound ClCCn1c(CCl)nc2ccc(Cl)cc21 98

Please list growth inhibition recorded for the compound O=NN(CCCl)C(=O)NCCCl 94

Please list growth inhibition recorded for the compound COc1cc2c(cc1C[N+](C)(C)CSc1ccccc1)-c1ccccc1CC2 99

Please list growth inhibition recorded for the compound O=C1NC(c2c(Cl)cccc2Cl)Nc2ccccc21 (centres undefined) 93

* * *

- EXPERIMENT NOTES: NCI Yeast Anticancer Drug Screen. Data for the wt2 strain (AID 169);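 further: 0% = growth of vehicle-treated yeast cultures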
- STATED CONDITIONS: S. cerevisiae wt2 strain growth inhibition; at 1.2 µM; active compounds read high
Compounds without any hit were thinned out: in the full panel of roughly 79,000, 15% have a hit.
ENDPOINT LABEL: growth inhibition (%)
Give the value in % but do not write % after it.

Please list growth inhibition recorded for the compound S=c1nc(Cl)cc2[nH]c(Cl)cn12 2

Please list growth inhibition recorded for the compound CC(=O)C1=C(O)C2(C)c3c(O)c(C)c(O)c(C(C)=O)c3OC2(Sc2ccccc2)CC1=O (configuration not stated) 10

Please list growth inhibition recorded for the compound CCC(=O)Oc1ccc(/C=N/NC(N)=S)nc1 2

* * *

- EXPERIMENT NOTES: NCI Yeast Anticancer Drug Screen. Data for the sgs1 mgt1 strain (AID 161);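 further: 0% = growth of cultures given vehicle only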
- STATED CONDITIONS: S. cerevisiae sgs1 mgt1 strain, at 50.0 µM, active compounds read high
About 79,000 compounds went through this panel and 15% of them were active in at least one assay; those are over-represented in the sample as a whole.
ENDPOINT LABEL: growth inhibition (%)
Give the value in % but do not write % after it.

Example entries and their recorded answers appear below.
[[record]]
compound = "Cc1nc2c(ncn2CCO)c(=O)[nH]1"
readout_unit = "%"
reported_measurement = 2.1

[[record]]
compound = "Clc1nc(C(Cl)Cl)nc2sc3c(c12)CCCC3"
readout_unit = "%"
reported_measurement = 97.7


Please list growth inhibition recorded for the compound Oc1ccc(Br)cc1C=NC1CCCCC1 85.3

Please list growth inhibition recorded for the compound CCCCCCCCN1C(=O)c2ccccc2C1=O 78.7

Please list growth inhibition recorded for the compound CC1OC(OC2CCCc3c(O)c4c(c(O)c32)C(=O)c2ccccc2C4=O)CC(N)C1O (stereo not drawn) 70.5

Please list growth inhibition recorded for the compound Nc1ccc2c(c1)sc1ccccc12 63.1

Please list growth inhibition recorded for the compound Cc1cccc(/C=N\NC(=S)N2CCCCC2)n1 91.5

Please list growth inhibition recorded for the compound COc1cc(CNc2ccc(C(C)C)cc2)cc(OC)c1OC 64
